Please go through the items and note down their TGI.
System: UO-31 renal
Assay: NCI tumour cell line growth inhibition, 48 h

For every record below, what is its TGI?
1. CCCOC(=O)c1cc(O)c(O)c(O)c1
2. COc1ccc2nc3ccccc3c(NCCNCCO)c2c1
3. Nc1cccc(-c2cc(=O)c3cc4c(cc3[nH]2)OCO4)c1
4. Cc1ccc(S(=O)(=O)OC[C@@]2(C)CC[C@]3(C)CC[C@]4(C)C(=C3C2)C=C[C@@H]2[C@@]3(C)CCCNC(C)(C)[C@@H]3CC[C@]24C)cc1
5. COc1ccc(-c2nc3ccccc3c(=O)[nH]2)cc1

["> 100 µM", "1.68 µM", "> 75.9 µM", "2.85 µM", "> 100 µM"]

* * *

Please go through the items and note down their GI50.
System: UACC-62 melanoma
Assay: NCI tumour cell line growth inhibition, 48 h

Example compounds with recorded GI50:
[
  {
    "compound": "CCCC(=O)Nc1cc(C(=O)N2C[C@H]3C[C@@]34C2=CC(=O)c2[nH]cc(C)c24)n(COC)c1",
    "testedTarget": "UACC-62 melanoma",
    "parameter": "GI50",
    "result": "144 nM"
  },
  {
    "compound": "CC1(C)N=C(N)N=C(N)N1c1ccc(CCCC(=O)Nc2ccc(S(=O)(=O)F)cc2)cc1",
    "testedTarget": "UACC-62 melanoma",
    "parameter": "GI50",
    "result": "2240 nM"
  },
  {
    "compound": "CCCN1C(=O)/C(=C/c2ccc(SC(F)(F)F)cc2)SC1=Nc1ccc(OC)cc1",
    "testedTarget": "UACC-62 melanoma",
    "parameter": "GI50",
    "result": "10000 nM"
  }
]

For every record below, what is its GI50?
1. Cc1cc(NC(=O)NCc2ccc(N3C(N)=NC(N)=NC3(C)C)cc2)ccc1S(=O)(=O)F
2. CC1[C@@]2(CCC(C)(C)O2)O[C@@H]2C=C3C4CCC5Cc6nc7c(nc6C[C@@]5(C)C4C[C@H](O)[C@@]3(C)[C@]12O)CC1CCC2C3=C[C@H]4O[C@@]5(O[C@@](C)(CO)C[C@@H]5O)C(C)[C@@]4(O)[C@]3(C)[C@@H](O)CC2[C@]1(C)C7 (some centres undefined)
3. COc1cc(C2CC(c3ccccc3)=NN2C=O)ccc1Oc1ccnc2cc(Cl)ccc12 (centres undefined)
4. COc1cc(-c2nc(-c3ccccc3)c(-c3ccccc3)[nH]2)cc(OC)c1O

["998 nM", "3.87 nM", "6760 nM", "15200 nM"]

For every record below, what is its GI50?
1. [Br][Pb]([c]1ccccc1)([c]1ccccc1)[c]1ccccc1
2. CN1C2C=CC(=O)C1C1C(=O)N(c3ccccc3)C(=O)C12 (centres undefined)
3. CCn1c(-c2nonc2N)nc2ccccc21

186 nM
11500 nM
> 25000 nM

For every record below, what is its GI50?
1. NC(=NCCCCCCN=C(N)/N=C(\N)Nc1ccc(Cl)cc1)/N=C(\N)Nc1ccc(Cl)cc1
2. CC[C@H](C)[C@H](NC(=O)[C@H]1CCCCN1C)C(=O)N(C)[C@H](CCc1nc(C(=O)N[C@@H](Cc2ccccc2)C[C@H](C)C(=O)O)cs1)C(C)C
3. Cc1ccc(-c2nc(NCCOCCOCCN)nc(N3CCN(c4ccccn4)CC3)n2)cc1

["1280 nM", "86.1 nM", "5990 nM"]

For every record below, what is its GI50?
1. N[C@@H]1CCCN(c2c(Br)cnc3[nH]cc(NC(=O)C4CC4)c23)C1
2. COc1ccc(-c2nsc3c2NC(=O)CC3c2ccsc2)cc1 (centres undefined)
3. COc1ccc2nc3ccccc3c(NCCNCCO)c2c1
4. Nc1ccc(CC[C@H]2CCC/C=C/[C@@H]3C[C@H](O)C[C@H]3[C@H](O)/C=C/C(=O)O2)cc1
5. COc1cc2ncn(-c3cc(OCc4ccccc4C(F)(F)F)c(C(N)=O)s3)c2cc1OC
6. CCN(CC)CCOC(COc1cc(C)cc(C)c1)COc1cc(C)cc(C)c1

1. 464 nM
2. 295 nM
3. 1090 nM
4. 48.8 nM
5. 168 nM
6. 1740 nM
